- assay-protocol: Plasma protein binding
- Assay type: in vitro ADME
- study-conditions: rat
measured-metric: fraction unbound at 6 h, 1 μM
Please respond with just the number, no unit label.

The molecule C#CC1CCN(C(=O)c2cn(-c3ccc4scc(C)c4c3)c(=O)c3cc(OC)c(OC)cc23)CC1 [Compound 66] showed fraction unbound at 6 h, 1 μM equal to 0.01

---

- assay-protocol: Metabolic stability in rat liver microsomes
- Format: in vitro ADME
- study-conditions: pH 7.4
measured-metric: CLint scaled at 0.75 h (mL/min/kg)
Note: unit mL/min/kg is implicit; provide only the numeric part.

mol-smiles	value-unit	CLint scaled at 0.75 h
COc1cc2c(C(=O)N3CCC(F)CC3)cn(-c3ccc4scc(C)c4c3)c(=O)c2cc1OC	mL/min/kg	48.4

The compound C#CC1CCN(C(=O)c2cn(-c3ccc4scc(C)c4c3)c(=O)c3cc(OC)c(OC)cc23)CC1 showed CLint scaled at 0.75 h equal to 74.7
